- Test system: Human Heme Oxygenase-1 (HMOX-1)
- assay_remarks: ELISA assay to measure human heme oxygenase-1 (HMOX-1) in HepG2 lysate
- Format: cell-based
- condition_info: fold change of human HMOX1 protein levels relative to DMSO control, HepG2
reported_metric: Maximum Fold induction
One number for each entry.

>  <molecule>
CC(O)CNC(=O)c1ccc2c(c1)nc(Nc1nc3ccc(C(F)(F)F)cc3o1)n2C (stereo not drawn)

>  <reported_metric>
Maximum Fold induction

>  <experimental_result>
37

$$$$
>  <molecule>
Cn1c(Nc2nc3cc(C(=O)NCCOCCO)ccc3o2)nc2ccccc21

>  <reported_metric>
Maximum Fold induction

>  <experimental_result>
24

$$$$
>  <molecule>
Cn1c(Nc2nc3ccc(C4CC4)cc3o2)nc2cc(C(=O)O)ccc21

>  <reported_metric>
Maximum Fold induction

>  <experimental_result>
71

$$$$

Let us move to another entry and its Maximum Fold induction.
Query: Maximum Fold induction; subject: "Cn1c(Nc2nc3ccc(OCCO)cc3o2)nc2cc(C(=O)NCCOCCO)ccc21" 23

====

- Test system: Human Heme Oxygenase-1 (HMOX-1)
- assay_remarks: ELISA assay to measure human heme oxygenase-1 (HMOX-1) in HepG2 lysate
- Format: cell-based
- condition_info: fold change of human HMOX1 protein levels relative to DMSO control, HepG2
reported_metric: Maximum Fold induction
Give bare numbers.

I need Maximum Fold induction for every entry listed below, if you could help.
1. O=C(NCCO)c1ccc2c(c1)nc(Nc1nc3ccc(OC(F)(F)F)cc3o1)n2CC1(O)COC1
2. Cn1c(Nc2nc3ccc(C(F)(F)F)nc3o2)nc2cc(C(=O)NCCO)ccc21

1: 21; 2: 20

====

Record form. Attribute: Maximum Fold induction. Fill in for each entry.
- System: Human Heme Oxygenase-1 (HMOX-1)
- assay_remarks: ELISA assay to measure human heme oxygenase-1 (HMOX-1) in HepG2 lysate
- Type: cell-based
- condition_info: fold change of human HMOX1 protein levels relative to DMSO control, HepG2
- Source text: Example 143. ELISA Assay to Measure Human Heme Oxygenase-1 (HMOX-1) in HepG2 lysate Reagents and Technical Notes: ELISA capture antibody, standard HO-1, detection antibody and streptavidin HRP were supplied in the DuoSet IC Human total HO-1 ELISA from R&D systems (DYC3776-2). The substrate cocktail was KPL LumiGLO reserve Chemiluminescent Substrate (54-71-00). […] Measurement of HMOX1 (“HO-1”) • 1. […] Measured chemiluminescence on spectramax M5 using 150 ms integration. […]

Recorded results for 3 compounds are shown here.
>  <compound>
Cn1c(Nc2nc3ccc(OCCO)cc3o2)nc2cc(C(=O)NOCCO)ccc21 [Example 129]

>  <target_desc>
Human Heme Oxygenase-1 (HMOX-1)

>  <Maximum Fold induction>
54-58

$$$$
>  <compound>
Cn1c(Nc2nc3ccc(N4CCCC4)cc3o2)nc2cc(C(=O)NCCOCCO)ccc21 [Example 137]

>  <target_desc>
Human Heme Oxygenase-1 (HMOX-1)

>  <Maximum Fold induction>
24-70

$$$$
>  <compound>
Cn1c(Nc2nc3nccnc3s2)nc2cc(C(=O)NCCOCCO)ccc21 [Example 114]

>  <target_desc>
Human Heme Oxygenase-1 (HMOX-1)

>  <Maximum Fold induction>
33

$$$$

I need Maximum Fold induction for every entry listed below, if you could help.
1. COCCOc1ccc2nc(Nc3nc4cc(C(=O)NCCO)ccc4n3C)oc2c1 [Example 57]
2. Cn1c(Nc2nc3ccc(OCCO)cc3o2)nc2cc(C(=O)O)ccc21 [Example 101]

["34-40", 21]

====

- Tested on: Human Heme Oxygenase-1 (HMOX-1)
- assay_remarks: ELISA assay to measure human heme oxygenase-1 (HMOX-1) in HepG2 lysate
- Format: cell-based
- condition_info: fold change of human HMOX1 protein levels relative to DMSO control, HepG2
reported_metric: Maximum Fold induction
Answers are plain numbers.

>  <compound>
COCCNC(=O)c1ccc2c(c1)nc(Nc1nc3cccnc3o1)n2C [Example 109]

>  <Maximum Fold induction>
26

$$$$
>  <compound>
Cn1c(Nc2nc3cc(F)c(C(F)(F)F)cc3o2)nc2cc(C(=O)NCCO)ccc21 [Example 108]

>  <Maximum Fold induction>
29

$$$$
>  <compound>
Cn1c(Nc2nc3cc(F)c(C(F)(F)F)cc3o2)nc2cc(C(=O)O)ccc21 [Example 107]

>  <Maximum Fold induction>
45

$$$$

Let us move to another entry and its Maximum Fold induction.
Query: Maximum Fold induction; subject: Cn1c(Nc2nc3ccccc3o2)nc2cc(C(O)C(F)(F)F)ccc21 (stereo not drawn) [Example 142] 27

====

Record form. Attribute: Maximum Fold induction. Fill in for each entry.
- Tested on: Human Heme Oxygenase-1 (HMOX-1)
- assay_remarks: ELISA assay to measure human heme oxygenase-1 (HMOX-1) in HepG2 lysate
- Assay type: cell-based
- condition_info: fold change of human HMOX1 protein levels relative to DMSO control, HepG2
Numbers only.

Recorded results for 3 molecules are shown here.
>  <molecule>
CC(O)COCCNC(=O)c1ccc2c(c1)nc(Nc1nc3ccccc3o1)n2C (stereo not drawn) [Example 25]

>  <experimental_result>
26

$$$$
>  <molecule>
CN(C)CCNC(=O)c1ccc2c(c1)nc(Nc1nc3ccccc3o1)n2C [Example 21]

>  <experimental_result>
14

$$$$
>  <molecule>
COCCOc1ccc2nc(Nc3nc4cc(C(=O)O)ccc4n3C)oc2c1 [Example 55]

>  <experimental_result>
15

$$$$

Let us move to another entry and its Maximum Fold induction.
Query: Maximum Fold induction; subject: COCCNC(=O)c1ccc2c(c1)nc(Nc1nc3ccc(OC(F)(F)F)cc3s1)n2C1CCN(C)C1 (stereo not drawn) [Example 4e] 19

====

- System: Human Heme Oxygenase-1 (HMOX-1)
- assay_remarks: ELISA assay to measure human heme oxygenase-1 (HMOX-1) in HepG2 lysate
- Format: cell-based
- condition_info: fold change of human HMOX1 protein levels relative to DMSO control, HepG2
Record form. Attribute: Maximum Fold induction. Fill in for each entry.
Give bare numbers.

Recorded results for 6 compounds are shown here.
>  <compound>
Cn1c(Nc2nc3ccccc3o2)nc2cc(C(=O)NCC(O)CO)ccc21 (centres unmarked)

>  <Maximum Fold induction>
49

$$$$
>  <compound>
CCn1c(Nc2nc3ccc(OC(F)(F)F)cc3o2)nc2cc(C(=O)O)ccc21

>  <Maximum Fold induction>
17

$$$$
>  <compound>
Cn1c(Nc2nc3ccc(OC4CCOCC4)cc3o2)nc2cc(C(=O)NCCOCCO)ccc21

>  <Maximum Fold induction>
20

$$$$
>  <compound>
Cn1c(Nc2nc3ccccc3o2)nc2cc(C(=O)NCCN3CCCC3)ccc21

>  <Maximum Fold induction>
41

$$$$
>  <compound>
COCCNC(=O)c1ccc2c(c1)nc(Nc1nc3ccc(OC(F)(F)F)cc3o1)n2CC1(O)COC1

>  <Maximum Fold induction>
28

$$$$
>  <compound>
CC(C)c1ccc2nc(Nc3nc4cc(C(=O)O)ccc4n3C)oc2c1

>  <Maximum Fold induction>
30

$$$$

Let us move to another entry and its Maximum Fold induction.
Query: Maximum Fold induction; subject: "Cn1c(Nc2nc3cccnc3o2)nc2cc(C(=O)NCCO)ccc21" 60

====

- System: Human Heme Oxygenase-1 (HMOX-1)
- assay_remarks: ELISA assay to measure human heme oxygenase-1 (HMOX-1) in HepG2 lysate
- Type: cell-based
- condition_info: human HMOX1 protein in HepG2 lysate, ELISA; * = average of 2 or more EC50 determinations; NA = Not Active
reported_metric: EC50 (µM)
Numbers only, in µM.

Recorded results for 6 compounds are shown here.
>  <compound>
CC1CCc2nc(Nc3nc4cc(C(=O)NCCOCCO)ccc4n3C)sc2C1 (stereo not shown) [Example 7]

>  <EC50 (µM)>
2.7

$$$$
>  <compound>
COCCNC(=O)c1ccc2c(c1)nc(Nc1nc3ccc(OC(F)(F)F)cc3o1)n2CC1CCOC1 (stereo not shown) [Example 88]

>  <EC50 (µM)>
1.5

$$$$
>  <compound>
COCCNC(=O)c1ccc2c(c1)nc(Nc1nc3c(s1)CCC3)n2C [Example 8]

>  <EC50 (µM)>
2.5

$$$$
>  <compound>
CCn1c(Nc2nc3ccc(OC(F)(F)F)cc3o2)nc2cc(C(=O)NCCOC)ccc21 [Example 85]

>  <EC50 (µM)>
1.3

$$$$
>  <compound>
COCCNC(=O)c1ccc2c(c1)nc(Nc1nc3c(s1)CCCC3)n2C [Example 5]

>  <EC50 (µM)>
1.3

$$$$
>  <compound>
COCCOc1ccc2nc(Nc3nc4cc(C(=O)O)ccc4n3C)oc2c1 [Example 55]

>  <EC50 (µM)>
4.5

$$$$

Kindly state the measured EC50 obtained for Cn1c(Nc2nc3c(s2)CC(C)(C)CC3)nc2cc(C(=O)NCCOCCO)ccc21 [Example 6] with Human Heme Oxygenase-1 (HMOX-1). 3
